From: patent US8193191B2

target-system: rat GPR14 (U-II receptor) (Rattus norvegicus, UniProt P49684)
Construct: expressed in transfected cells
Sequence (P49684 whole entry): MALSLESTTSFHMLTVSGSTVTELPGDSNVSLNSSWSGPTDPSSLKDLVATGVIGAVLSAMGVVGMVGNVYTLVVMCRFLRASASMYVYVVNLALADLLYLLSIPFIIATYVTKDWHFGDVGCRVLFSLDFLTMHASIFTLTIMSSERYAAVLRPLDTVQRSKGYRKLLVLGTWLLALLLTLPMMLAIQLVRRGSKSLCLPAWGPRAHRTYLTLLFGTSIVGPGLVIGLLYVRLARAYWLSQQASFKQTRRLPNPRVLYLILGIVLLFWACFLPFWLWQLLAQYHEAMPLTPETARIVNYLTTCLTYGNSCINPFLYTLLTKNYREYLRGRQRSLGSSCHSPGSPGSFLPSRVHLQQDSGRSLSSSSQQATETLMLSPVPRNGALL
method-description: Rat UII Calcium Mobilization FLIPR Assay
Format: cell-based
study-conditions: average value for the compound tested; read-out: Rat UII FLIPR Average IC50
Record form. Attribute: pIC50. Fill in for each entry.
Reminder that pIC50 is minus the log10 of a molar concentration.

Tell me the measured pIC50 of COc1ccc([C@@H](CCCNC(C)=N)N2C(=O)c3cccc(N4CCN([C@H](C)c5ccccc5)CC4)c3C2=O)cc1OC [Cpd 166] , please. 7.59

Another molecule to check: COc1ccc(C(CCCNS(=O)(=O)c2cnoc2C)N2C(=O)c3cccc(N4CCN([C@H](C)c5ccccc5)CC4)c3C2=O)cc1OC (stereo partly drawn) [Cpd 108] 7.85

Another molecule to check: COc1ccc([C@@H](CCCNS(=O)(=O)c2cccs2)N2C(=O)c3cccc(N4CCN([C@H](C)c5ccccc5)CC4)c3C2=O)cc1OC [Cpd 118] 7.54
